Measured inhibition at 10 µM by item
Target: human B1R receptor (Homo sapiens, UniProt P46663)
Construct: host or cells: CHO K1 cells (Chinese hamster ovary), stably transfected
Sequence (P46663 whole entry): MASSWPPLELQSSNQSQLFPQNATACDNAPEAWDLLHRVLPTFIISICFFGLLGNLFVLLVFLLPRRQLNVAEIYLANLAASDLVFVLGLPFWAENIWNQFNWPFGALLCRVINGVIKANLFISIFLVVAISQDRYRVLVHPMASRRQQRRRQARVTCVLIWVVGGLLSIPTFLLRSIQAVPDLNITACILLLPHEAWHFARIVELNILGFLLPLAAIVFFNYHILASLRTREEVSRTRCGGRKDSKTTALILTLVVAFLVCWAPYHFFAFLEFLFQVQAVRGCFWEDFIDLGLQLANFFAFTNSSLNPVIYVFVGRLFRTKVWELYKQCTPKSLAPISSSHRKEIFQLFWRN
Assay: Functional study on the bradykinin receptor 1 (B1R), FLIPR Ca2+ assay, hB1R cells
Format: cell-based
Conditions: CHO-K1, test substance 10 μM, agonist Lys-Des-Arg9-bradykinin 0.5 nM, % inhibition compared with the maximum achievable inhibition, read-out: B1R Antagonism, human [10 μM] % Inhibition
Kindly format the answer as number then unit.

Worked set:
Give the reported inhibition at 10 µM for Cc1cc(C)c(S(=O)(=O)N2CCCCC2COCC(=O)N2CCC(c3nc4cc(C)ccc4[nH]3)CC2)c(C)c1 (centres unmarked) (system: human B1R receptor (Homo sapiens, UniProt P46663)).
7.55%

Repeat with O=C(COCC1Cc2ccccc2CN1S(=O)(=O)c1ccc(Cl)cc1Cl)N1CCCN(Cc2ccccc2)CC1 (centres unmarked)
45.5%

And for COc1cc(C)c(S(=O)(=O)N2CCCCC2COCC(=O)Nc2ccc(-n3ccnc3C)cc2)c(C)c1 (centres unmarked) ?
102%

Try the compound CN1CCC(N2CCN(C(=O)COCC3CCCN3S(=O)(=O)c3c(Cl)cccc3Cl)CC2)CC1 (centres unmarked)
104%

Others:
Give recorded inhibition at 10 µM with human B1R receptor (Homo sapiens, UniProt P46663) for the following compound: CN1CCN(C2CCN(C(=O)COCC3CCCN3S(=O)(=O)c3c(Cl)cc(Cl)cc3Cl)CC2)CC1 (centres unmarked)
104%

---

Target: human B1R receptor (Homo sapiens)
Construct: host or cells: CHO K1 cells (Chinese hamster ovary), stably transfected
Test: Functional study on the bradykinin receptor 1 (B1R), FLIPR Ca2+ assay, hB1R cells
Assay type: cell-based
Settings: CHO-K1, test substance 10 μM, agonist Lys-Des-Arg9-bradykinin 0.5 nM, % inhibition compared with the maximum achievable inhibition, read-out: B1R Antagonism, human [10 μM] % Inhibition
Each record here notes measured inhibition at 10 µM.
Output should be the measured figure followed by the unit it is expressed in.

Examples with answers:
I am curious: what inhibition at 10 µM value has been reported for COc1cc(C)c(S(=O)(=O)N2CCCCC2COCC(=O)N(Cc2ccccc2)c2cc(C)ccn2)c(C)c1 (centres unmarked) [Example 507] ?
-10.1%

Item: COc1cc(C)c(S(=O)(=O)N2CCCCC2COCC(=O)N2CCC(c3ccccn3)C2)c(C)c1 (centres unmarked) [Example 236]
95.9%

Another compound to look at: COc1cc(C)c(S(=O)(=O)N2CCCCC2COCC(=O)N2CCC[C@H]2CN2CCCC2)c(C)c1 (some centres unmarked) [Example 374]
80.8%

Now give it for COc1cc(C)c(S(=O)(=O)N2CCCCC2COCC(=O)NCCc2c[nH]c3ccccc23)c(C)c1 (centres unmarked) [Example 243] too.
24.8%

Also CCc1ccc(CC2CCCN2C(=O)COCC2CCCN2S(=O)(=O)c2c(C)cc(OC)cc2C)nc1 (centres unmarked) [Example 490] , if possible.
93.5%

Now the compound COc1cc(C)c(S(=O)(=O)N2CCCCC2COCC(=O)N2CCN(c3ccc(Cl)c(Cl)c3)CC2)c(C)c1 (centres unmarked) [Example 378]
63.4%

Continuing:
Looking for the measured inhibition at 10 µM of COc1ccc(N2CCN(C(=O)COCC3CCCCN3S(=O)(=O)c3c(C)cc(OC)cc3C)CC2)cc1 (centres unmarked) [Example 290] , can you help?
104%

And COc1cc(C)c(S(=O)(=O)N2CCCCC2COCC(=O)Nc2nccc3ccccc23)c(C)c1 (centres unmarked) [Example 370] ?
18.7%

What about COc1cc(C)c(S(=O)(=O)N2CCCCC2COCC(=O)N(C2CC2)C2CCN(Cc3ccccc3)CC2)c(C)c1 (centres unmarked) [Example 342] ?
104%

Same lookup for CN1CCN(Cc2ccc(CNC(=O)COCC3CCCN3S(=O)(=O)c3c(Cl)cc(Cl)cc3Cl)cc2)CC1 (centres unmarked) [Example 45] , please.
69.1%

Next compound: O=C(COCC1CCCN1S(=O)(=O)c1c(Cl)cc(Cl)cc1Cl)NCCN1CCCCC1 (centres unmarked) [Example 338]
92.6%

COc1cc(C)c(S(=O)(=O)N2CCCCC2COCC(=O)NCc2cccc(Oc3cnccn3)c2)c(C)c1 (centres unmarked) [Example 195] , same question.
85.1%

Record: CN(C(=O)COCC1CCCCN1S(=O)(=O)c1c(Cl)cccc1Cl)[C@H]1CCN(Cc2ccccc2)C1 (some centres unmarked) [Example 315]
105%

Similarly, O=C(COCC1CCCN1S(=O)(=O)c1ccc(Cl)c(Cl)c1)N1CCN(c2ccccc2)CC1 (centres unmarked) [Example 89] ?
41.3%

One more compound: CN1CCN(C2CCN(C(=O)COCC3CCCN3S(=O)(=O)c3c(Cl)cccc3Cl)CC2)CC1 (centres unmarked) [Example 285]
104%

Next: O=C(COCC1CCCCN1S(=O)(=O)c1cccc2ccccc12)N1CCC(N2CCCC2)CC1 (centres unmarked) [Example 23]
92.3%

Same question for COc1cc(C)c(S(=O)(=O)N2CCCCC2COCC(=O)N(C)C(CN2CCCC2)c2ccccc2)c(C)c1 (centres unmarked) [Example 241] please.
104%

Consider next the compound O=C(COCC1CCCN1S(=O)(=O)c1ccc(Cl)c(Cl)c1)N1CCN(CCN2CCCCC2)CC1 (centres unmarked) [Example 72] in the same way.
52.6%

COc1cc(C)c(S(=O)(=O)N2CCCC2COCC(=O)N2CCN(Cc3ccc(Cl)cc3)CC2)c(C)c1 (centres unmarked) [Example 352] ?
104%

// query: Cc1cc(C)c(S(=O)(=O)N2CCCCC2COCC(=O)Nc2cccc(CN3CCCCC3)c2)c(C)c1 (centres unmarked) [Example 76]
48.9%

Same for O=C(COCC1CCCCN1S(=O)(=O)c1c(Cl)cccc1Cl)N1CCN(Cc2ccc(Br)cc2)CC1 (centres unmarked) [Example 406]
103%

Another compound: CN(C)Cc1ccc(CNC(=O)COCC2CCCCN2S(=O)(=O)c2c(Cl)cc(Cl)cc2Cl)cc1 (centres unmarked) [Example 37]
78.2%

Repeat for the following compound: O=C(COCC1CCCN1S(=O)(=O)c1c(Cl)cc(Cl)cc1Cl)NCC1CCCN(Cc2ccccc2)C1 (centres unmarked) [Example 327]
104%

---

Target: B1R receptor of the rat (Rattus norvegicus, UniProt P97583)
Construct: host or cells: CHO K1 cells (Chinese hamster ovary), stably transfected
Assay: Functional study on the bradykinin receptor 1 (B1R), FLIPR Ca2+ assay, rB1R cells
Assay type: cell-based
Settings: CHO-K1, test substance 10 μM, agonist Des-Arg9-bradykinin 100 nM, % inhibition compared with the maximum achievable inhibition, read-out: B1R Antagonism, rat [10 μM] % Inhibition
measurementName: inhibition at 10 µM (%)
Only the number, expressed in %, is required.

Field: example entries. Status: answers known.
I'm curious: which inhibition at 10 µM was measured for O=C(COCC1Cc2ccccc2CN1S(=O)(=O)c1ccc(Cl)c(Cl)c1)N1CCC(N2CCCC2)CC1 (stereo not shown) tested on B1R receptor of the rat (Rattus norvegicus, UniProt P97583)?
65.4

What would you report for CC(C)N(CCN1CCN(C(=O)COCC2CCCCN2S(=O)(=O)c2c(Cl)cccc2Cl)CC1)C(C)C (stereo not shown) ?
92.4

Lookup COc1cc(C)c(S(=O)(=O)N2CCCCC2COCC(=O)Nc2ccc(CN3CCCCC3)cc2)c(C)c1 (stereo not shown)
101

Param item: COc1cc(C)c(S(=O)(=O)N2CCCCC2COCC(=O)N2CCN(CCn3c(C)ccc3C)CC2)c(C)c1 (stereo not shown)
100

Entry to check: O=C(COCC1CCCCN1S(=O)(=O)c1ccc(Br)cc1)N1CCC(CCN2CCCC2)CC1 (stereo not shown)
95.4

New cases:
Checklist item: inhibition at 10 µM tested on B1R receptor of the rat (Rattus norvegicus, UniProt P97583), entry COc1cc(C)c(S(=O)(=O)N2CCCCC2COCC(=O)N(Cc2ccccc2)c2cccc(C)n2)c(C)c1 (stereo not shown) , value?
103

Same question for COc1cc(C)c(S(=O)(=O)N2CCCCC2COCC(=O)NCc2ccccc2N2CCCCC2)c(C)c1 (stereo not shown) please.
102

Then this compound: COc1cc(C)c(S(=O)(=O)N2CCCCC2COCC(=O)N2CCN(C)CC2c2ccccc2)c(C)c1 (stereo not shown)
101

---

Biological target: B1R receptor of the rat (Rattus norvegicus, UniProt P97583)
Construct: host or cells: CHO K1 cells (Chinese hamster ovary), stably transfected
Sequence (P97583 1-337): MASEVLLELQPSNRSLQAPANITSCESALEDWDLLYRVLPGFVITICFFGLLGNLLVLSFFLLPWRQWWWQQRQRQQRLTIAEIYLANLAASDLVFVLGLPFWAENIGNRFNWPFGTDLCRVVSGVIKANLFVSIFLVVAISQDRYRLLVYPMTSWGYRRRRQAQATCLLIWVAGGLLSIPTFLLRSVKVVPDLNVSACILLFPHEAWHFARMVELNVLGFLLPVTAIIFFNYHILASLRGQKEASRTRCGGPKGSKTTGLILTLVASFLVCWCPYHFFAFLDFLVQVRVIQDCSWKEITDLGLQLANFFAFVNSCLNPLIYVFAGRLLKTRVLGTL
Assay: Functional study on the bradykinin receptor 1 (B1R), FLIPR Ca2+ assay, rB1R cells
Type: cell-based
Conditions: CHO-K1, test substance 10 μM, agonist Des-Arg9-bradykinin 100 nM, % inhibition compared with the maximum achievable inhibition, read-out: B1R Antagonism, rat [10 μM] % Inhibition
Structures can show the parent of a compound that is named as a salt.
compounds and their reported inhibition at 10 µM
# number only, unit % dropped from output

// worked examples, inhibition at 10 µM included
I'd like to know its inhibition at 10 µM. The compound in question is COc1cc(C)c(S(=O)(=O)N2CCCC2COCC(=O)N2CCC(N3CCN(C)CC3)CC2)c(C)c1 (stereo not shown) [Example 267]
95.2

Check CN1CCC(N2CCN(C(=O)COCC3CCCCN3S(=O)(=O)c3cccc4ccccc34)CC2)CC1 (stereo not shown) [Example 110] too.
102

And for COc1ccc(S(=O)(=O)N2c3ccccc3CC2COCC(=O)NCC2CCCN(Cc3ccccc3)C2)cc1 (stereo not shown) [Example 422] ?
98.6

Same question, COc1cc(C)c(S(=O)(=O)N2CCCCC2COCC(=O)NCCN(C)C)c(C)c1 (stereo not shown) [Example 259] this time
99.3

Let us now turn to CN1CCC(N2CCN(C(=O)COCC3CCCCN3S(=O)(=O)c3ccc4c(c3)CCCC4)CC2)CC1 (stereo not shown) [Example 179, dihydrochloride]
100

Then this compound: COc1cc(C)c(S(=O)(=O)N2CCCCC2COCC(=O)NCc2ccc(N3CCN(C)CC3)cc2)c(C)c1 (stereo not shown) [Example 434]
101

Continue with the compound presented below.
So what's the measured inhibition at 10 µM for this one? CN1CCC(N2CCN(C(=O)COCC3CCCCN3S(=O)(=O)c3cccc4cccnc34)CC2)CC1 (stereo not shown) [Example 175, dihydrochloride]
86.3
